What MIC was measured for each of the following?
test system: Escherichia coli NIHJ; assay: minimal inhibitory concentration, agar dilution method; type: cell-based
One number for each entry, in µg/mL.

Molecule | MIC, µg/mL
CC1(C)S[C@@H]2[C@H](NC(=O)[C@H](NC(=O)c3cnc4cccnc4c3O)c3ccc(O)c(Cl)c3)C(=O)N2[C@H]1C(=O)O | 3.13
CC1(C)S[C@@H]2[C@H](NC(=O)C(NC(=O)c3cnc4ccccc4c3O)c3ccc(O)cc3)C(=O)N2[C@H]1C(=O)O (mixture of isomers) | 6.25
CC1(C)S[C@@H]2[C@H](NC(=O)[C@H](NC(=O)c3cnc4ccc(O)nc4c3O)c3ccc(O)cc3)C(=O)N2[C@H]1C(=O)O | 1.56

Dear colleague, could you send me MIC for each of the items below? Thanks.
1. COc1nc(OC)c2c(O)c(C(=O)N[C@@H](C(=O)N[C@@H]3C(=O)N4[C@@H]3SC(C)(C)[C@@H]4C(=O)O)c3ccc(O)cc3)cnc2n1
2. CC1(C)S[C@@H]2[C@H](NC(=O)[C@H](NC(=O)c3cnc4cccnc4c3O)c3ccc(O)cc3)C(=O)N2[C@H]1C(=O)O
3. CCOC(=O)Oc1ccc([C@@H](NC(=O)c2cnc3nc(C)ccc3c2O)C(=O)N[C@@H]2C(=O)N3[C@@H]2SC(C)(C)[C@@H]3C(=O)O)cc1

3.13
1.56
3.13
